Data provenance is patent US9533953B2.

experiment: Physical stability of the crystal form on heating, humidity and storage (XRPD); format: physicochemical; conditions: upon heating; A into B, D into E, E into B, G desolvates into D
Listed below: temperature of transformation into another crystal form values for each entry.
quantity: temperature of transformation into another crystal form (°C)

molecule: COc1cnc(C(=O)Nc2c(Cl)c[n+]([O-])cc2Cl)cc1OCC1CC1 [Crystal Form D]
unit: °C
measurement: 110
//
molecule: COc1cnc(C(=O)Nc2c(Cl)c[n+]([O-])cc2Cl)cc1OCC1CC1 [Crystal Form G]
unit: °C
measurement: 70
//
molecule: COc1cnc(C(=O)Nc2c(Cl)c[n+]([O-])cc2Cl)cc1OCC1CC1 [Crystal Form E]
unit: °C
measurement: 140
